All figures here come from the supplement of paper PMC8253809.

Parameter: growth inhibition. Scope: all listed entries.
Tested on: SUDIPGVI (diffuse intrinsic pontine glioma line)
EXPERIMENT_NOTES: growth inhibition (% activity, log2 RLU normalised to DMSO / staurosporine); higher = more growth inhibition
MEASUREMENT_CONTEXT: 33 µM
Value expressed in %; do not type the unit.

Input: Notebook: pull reported growth inhibition for SUDIPGVI, entry O=C1CC[C@@]2(O)[C@H]3Cc4ccc(O)c5c4[C@@]2(CCN3CC2CC2)[C@H]1O5
Output: 3.67

Input: What growth inhibition appears in the records for this compound with SUDIPGVI? CN(C)C(=O)Oc1ccc[n+](C)c1
Output: 1.15

Input: Field: growth inhibition (SUDIPGVI). Entry: CC(O)(CS(=O)(=O)c1ccc(F)cc1)C(=O)Nc1ccc(C#N)c(C(F)(F)F)c1 (stereo not given)
Output: 2.38

Input: Please tell me: growth inhibition of CN1C(=O)CCS(=O)(=O)C1c1ccc(Cl)cc1 (stereo not given) , system SUDIPGVI?
Output: -0.17

Input: Give SUDIPGVI growth inhibition for CN(C)C1C(=O)C(C(N)=O)=C(O)C2(O)C(=O)C3=C(O)c4c(O)cccc4C(C)(O)C3CC12 (stereo not given)
Output: -2.69

* * *

Test system: HNSC
EXPERIMENT_NOTES: growth inhibition (% activity, log2 RLU normalised to DMSO / staurosporine); higher = more growth inhibition
MEASUREMENT_CONTEXT: 33 µM
Listing of entries alongside the reported growth inhibition.

Answered cases to consult:
{"MOLECULE": "O=C1CC[C@@]2(O)[C@H]3Cc4ccc(O)c5c4[C@@]2(CCN3CC2CC2)[C@H]1O5", "growth inhibition": "3.56%"}
{"MOLECULE": "COc1ccc(OC)c(C(O)C(C)N)c1 (stereo unspecified)", "growth inhibition": "1.54%"}
{"MOLECULE": "CC(C)NCC(O)c1ccccc1Cl (stereo unspecified)", "growth inhibition": "-2.5%"}

Input: // fetch HNSC growth inhibition for CNCC(=O)c1ccc(O)c(O)c1
Output: -1.87%

Input: Find the measured growth inhibition: item COc1ccc(C(CN(C)C)C2(O)CCCCC2)cc1 (stereo unspecified) , target or system HNSC.
Output: 1.61%

Input: Please state recorded growth inhibition (tested on HNSC) of C#C[C@]1(O)CC[C@H]2[C@@H]3CCC4=CC(=O)CC[C@]4(C)[C@H]3CC[C@@]21C
Output: 5.86%

* * *

# Lookup of reported growth inhibition keyed by entry
Test system: HNSC
EXPERIMENT_NOTES: growth inhibition (% activity, log2 RLU normalised to DMSO / staurosporine); higher = more growth inhibition
MEASUREMENT_CONTEXT: 33 µM
Answer with a number only, understood to be in %.

{"MOLECULE": "CCC1(c2ccc(N)cc2)CCC(=O)NC1=O (stereo not given)", "SYSTEM_UNDER_TEST": "HNSC", "ASSAY_ENDPOINT": "growth inhibition", "NUMERIC_VALUE": -1.67}

Input: Could you tell me which growth inhibition is on file for O=P1(NCCCl)OCCCN1CCCl (stereo not given) ?
Output: -5.21

Input: Form field: reported growth inhibition of C[C@]12CCC(=O)C=C1C=C[C@@H]1[C@@H]2CC[C@@]2(C)[C@H]1CC[C@@]2(O)CCC(=O)O
Output: 37.3

Input: Need growth inhibition of CC[C@@]1(O)C(=O)OCc2c1cc1n(c2=O)Cc2cc3ccccc3nc2-1 , thanks.
Output: 65.8

Input: For the molecule CN(C)C(=O)Oc1ccc[n+](C)c1 , what growth inhibition is on record?
Output: -1.64

Input: What growth inhibition value was documented for this molecule, N.N.[Cl][Pt][Cl] ?
Output: -5.11

Input: Item Cc1c(N)nc(C(CC(N)=O)NCC(N)C(N)=O)nc1C(=O)NC(C(=O)NC(C)C(O)C(C)C(=O)NC(C(=O)NCCc1nc(-c2nc(C(=O)NCCC[S+](C)C)cs2)cs1)C(C)O)C(O[C@@H]1O[C@@H](CO)[C@@H](O)[C@H](O)[C@@H]1O[C@H]1O[C@H](CO)[C@@H](O)[C@H](OC(N)=O)[C@@H]1O)c1cnc[nH]1 (stereo not given in full) has what recorded growth inhibition?
Output: 56.5
